In this section, each of the compounds is paired with its reported cytotoxicity at 70.5 h.
experiment: Human HepG2 cell viability assay in 384 well format; type: toxicity, cell-based; design: dose 125 nL, time 70.5 hour; concentration not given beside the values; conditions: HepG2 cells, read-out: Inhibition
ENDPOINT: cytotoxicity at 70.5 h (%)

[[record]]
compound = "CC(C)(C)OC(=O)N1CCCN(c2nnc(Br)s2)CC1"
recorded_result = -4.55

[[record]]
compound = "Cc1noc(C)c1-c1cncc(C2CCCN2Cc2nccs2)n1 (centres undefined)"
recorded_result = -9.87

[[record]]
compound = "O=C(Nc1nncs1)N1CCC(c2ccc(O)cc2)CC1"
recorded_result = -4.31

[[record]]
compound = "CN1Cc2ccccc2N(CC(O)C(F)(F)F)CCC1=O (centres undefined)"
recorded_result = -6.68

[[record]]
compound = "COc1ccc(C)cc1C1(CNc2cncc(Cl)n2)CCOCC1"
recorded_result = -8.23

[[record]]
compound = "CCn1cc(CN2CCCN(C(=O)CCCn3cncn3)CC2)cn1"
recorded_result = 1.08

[[record]]
compound = "O=S(=O)(C1CC1)N1CC[C@]2(C[C@H](OCC3CCOCC3)CO2)C1"
recorded_result = -9.21

[[record]]
compound = "COc1ccc(CCN2C(=O)O[C@@H]3CN(C4CCOCC4)C[C@@H]32)cc1"
recorded_result = 5.89

[[record]]
compound = "Cc1nc(C2CCCN2C(=O)CNS(C)(=O)=O)no1 (centres undefined)"
recorded_result = -13.3

[[record]]
compound = "CC(C)Oc1ccccc1CNC(=O)N1CCC(n2cncn2)CC1"
recorded_result = 26.9

[[record]]
compound = "CCc1nc2c(N3CCC4(CC3)CC(=O)N(CC(C)C)C4)ncnc2o1"
recorded_result = 1.84

[[record]]
compound = "CC(C)Oc1ncccc1CNC(=O)N1CCC(C(N)=O)C1 (centres undefined)"
recorded_result = -12.5

[[record]]
compound = "CNC(=O)CC1c2cccnc2C(=O)N1Cc1ccccc1 (centres undefined)"
recorded_result = -4.81

[[record]]
compound = "CNC(=O)C1CCC2(CCNCC2)C1 (centres undefined)"
recorded_result = -3.71

[[record]]
compound = "CC(C)C1CN(Cc2nccn2C(C)C)CCC(=O)N1CC1CC1 (centres undefined)"
recorded_result = 0.0298

[[record]]
compound = "CN(Cc1ccon1)CC1CCOc2ccccc2C1 (centres undefined)"
recorded_result = -8.84

[[record]]
compound = "CC(c1cccc(Cl)c1)N(C)CCS(=O)(=O)CCC(N)=O (centres undefined)"
recorded_result = -0.172

[[record]]
compound = "CCc1noc(CNCC2CCCN2c2cccnn2)n1 (centres undefined)"
recorded_result = 1.91

[[record]]
compound = "COCCOCC(=O)Nc1cc(C)ccc1F"
recorded_result = 4.73

[[record]]
compound = "CC(C)c1nnc2n1CCN(C(C(N)=O)c1ccc(F)cc1)C2 (centres undefined)"
recorded_result = -21.3

[[record]]
compound = "Cc1cccc(C(=O)N2CCCN(CCc3scnc3C)CC2)c1"
recorded_result = -10.5

[[record]]
compound = "COCCO[C@H]1CCN(C(=O)c2ccsc2)[C@H]1Cc1ccncc1"
recorded_result = -9.1

[[record]]
compound = "CCN1CC[C@@]2(C(=O)N3CCOCC3)CCN(S(=O)(=O)CC)CC[C@@H]12"
recorded_result = 3.2

[[record]]
compound = "CC(C)N1CCCC2(CCN(C(=O)CCCn3ccnc3)C2)C1=O (centres undefined)"
recorded_result = -12.1

